biological target: Muscarinic acetylcholine receptor M1 (Rattus norvegicus) (UniProt P08482); experiment: Agonist activity at rat muscarinic M1 receptor expressed in CHO cells relative to acetylcholine; assay type: functional, cell-based
measured_endpoint: Emax (%)

{"columns": ["structure_as_smiles", "meas_value"],
 "data": [
  ["CCOC(=O)N1CCC(N2CCC[C@@H](NC(=O)c3ccc(F)cc3C)C2)CC1", 77],
  ["CCOC(=O)N1CCC(N2CCC[C@@H](NC(=O)C3CCCC3)C2)CC1", 35],
  ["CCOC(=O)N1CCC(N2CCC[C@@H](NC(=O)c3cccs3)C2)CC1", 61],
  ["CCOC(=O)N1CCC(N2CCC[C@@H](NC(=O)c3cccc(F)c3)C2)CC1", 92],
  ["CCOC(=O)N1CCC(NCCNC(=O)c2ccccc2C)CC1", 81]
]}

a: CCOC(=O)N1CCC(N2CCC[C@@H](NC(=O)c3cccc(OC)c3)C2)CC1
b: CCOC(=O)N1CCC(N2CCC[C@@H](NC(=O)c3ccccc3Cl)C2)CC1
Task: I would appreciate it if you could say which entry, a or b , has the lower Emax value. Your answer should be the label of the entry you select.
Result: b
(b: 57%, a: 91%)

* * *

molecular target: Muscarinic acetylcholine receptor M1 (Rattus norvegicus, UniProt P08482); experiment: Agonist activity at rat muscarinic M1 receptor expressed in CHO cells; type: functional, cell-based; conditions: cho
Sequence (P08482 whole entry): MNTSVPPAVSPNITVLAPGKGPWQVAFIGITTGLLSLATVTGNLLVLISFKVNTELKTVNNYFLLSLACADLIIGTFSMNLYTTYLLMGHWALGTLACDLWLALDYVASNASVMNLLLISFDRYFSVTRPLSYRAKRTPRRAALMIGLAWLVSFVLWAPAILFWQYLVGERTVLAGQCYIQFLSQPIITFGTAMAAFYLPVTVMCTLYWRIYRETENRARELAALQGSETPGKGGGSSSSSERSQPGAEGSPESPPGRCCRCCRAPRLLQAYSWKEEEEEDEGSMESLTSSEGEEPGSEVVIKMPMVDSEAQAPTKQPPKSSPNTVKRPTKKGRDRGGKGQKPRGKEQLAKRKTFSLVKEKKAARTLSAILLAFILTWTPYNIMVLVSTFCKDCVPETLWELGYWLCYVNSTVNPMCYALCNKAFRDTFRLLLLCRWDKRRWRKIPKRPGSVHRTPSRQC
measured_endpoint: EC50 (nM)
Quick reminder: number only, in nM, skip the unit.

Task: GET /values?readout=EC50&item= CCOC(=O)N1CCC(NCCNC(=O)c2ccccc2C)CC1
Result: 200

* * *

target: Muscarinic acetylcholine receptor M4 (Rattus norvegicus, UniProt P08485); assay: Agonist activity at rat recombinant muscarinic M4 receptor by HTS cell based assay; format: functional
Sequence (P08485 whole entry): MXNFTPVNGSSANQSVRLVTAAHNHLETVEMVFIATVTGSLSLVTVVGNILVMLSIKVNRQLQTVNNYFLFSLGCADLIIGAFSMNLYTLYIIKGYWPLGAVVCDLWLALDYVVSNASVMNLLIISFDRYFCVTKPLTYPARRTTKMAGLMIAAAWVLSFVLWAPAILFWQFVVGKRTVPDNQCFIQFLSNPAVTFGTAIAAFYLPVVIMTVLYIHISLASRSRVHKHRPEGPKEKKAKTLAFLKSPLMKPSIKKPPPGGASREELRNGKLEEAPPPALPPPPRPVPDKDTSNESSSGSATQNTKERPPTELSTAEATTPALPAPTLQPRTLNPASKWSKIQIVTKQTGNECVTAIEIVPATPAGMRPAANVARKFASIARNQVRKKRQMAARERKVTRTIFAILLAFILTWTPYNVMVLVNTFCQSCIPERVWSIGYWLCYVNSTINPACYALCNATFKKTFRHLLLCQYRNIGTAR
pEC50: −log10 of the molar value.
measured_endpoint: pEC50

{"columns": ["structure_as_smiles", "pEC50"],
 "data": [
  ["CCOC(=O)N1CCC(NCCNC(=O)c2ccccc2C)CC1", "< 4.52"]
]}

// switching to the query compound
Task: I have this compound here, CCOC(=O)N1CCC(N2CCC[C@@H](NC(=O)c3ccccc3C)C2)CC1 , and I need its recorded pEC50.
Result: < 4.52

* * *

assay: Ratio of AUC in brain to AUC in blood in Sprague-Dawley rat at 10 mg/kg, po after 90 mins; format: ADME, organism-based; design: dose 10 mg/kg, route oral; settings: read-out: BPR
measured_endpoint: Kp at 1.5 h
// response body must contain only the number

Task: # Kp at 1.5 h lookup, item CCOC(=O)N1CCC(N2CCC[C@@H](NC(=O)c3ccccc3C)C2)CC1
Result: 1.35

* * *

# maps each entry to its EC50
target: Muscarinic acetylcholine receptor M3 (Homo sapiens, UniProt P20309); assay: Agonist activity at human recombinant muscarinic M3 receptor by HTS cell based assay
Sequence (P20309 whole entry): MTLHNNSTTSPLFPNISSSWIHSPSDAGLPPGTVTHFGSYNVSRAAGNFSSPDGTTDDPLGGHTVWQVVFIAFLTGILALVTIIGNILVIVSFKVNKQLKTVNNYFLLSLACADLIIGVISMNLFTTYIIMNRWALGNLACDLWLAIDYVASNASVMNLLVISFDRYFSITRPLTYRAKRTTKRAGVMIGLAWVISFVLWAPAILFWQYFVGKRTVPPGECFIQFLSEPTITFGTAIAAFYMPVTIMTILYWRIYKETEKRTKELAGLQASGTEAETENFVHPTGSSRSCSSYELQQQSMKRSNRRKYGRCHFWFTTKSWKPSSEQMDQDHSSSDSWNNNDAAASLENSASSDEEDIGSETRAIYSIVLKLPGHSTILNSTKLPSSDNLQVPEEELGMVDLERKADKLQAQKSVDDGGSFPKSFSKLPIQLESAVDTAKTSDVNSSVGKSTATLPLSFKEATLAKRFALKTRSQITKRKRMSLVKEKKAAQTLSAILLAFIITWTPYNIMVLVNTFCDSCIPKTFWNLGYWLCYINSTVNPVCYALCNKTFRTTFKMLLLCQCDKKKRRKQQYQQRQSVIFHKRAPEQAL

{"columns": ["structure_as_smiles", "target_or_test_system", "EC50"],
 "data": [
  ["CCOC(=O)N1CCC(N2CCC[C@@H](NC(=O)c3ccccc3C)C2)CC1", "Muscarinic acetylcholine receptor M3 (Homo sapiens, UniProt P20309)", "> 30 µM"]
]}

Would you kindly look at the next entry?
Task: If you can, please state the reported EC50 value of CCOC(=O)N1CCC(NCCNC(=O)c2ccccc2C)CC1 .
Result: > 30 µM

* * *

biological target: Muscarinic acetylcholine receptor M1 (Rattus norvegicus) (UniProt P08482); assay: Agonist activity at rat muscarinic M1 receptor expressed in CHO cells relative to acetylcholine; format: functional, cell-based
measured_endpoint: Emax (%)

Some molecules with known Emax results, for comparison:
{"columns": ["structure_as_smiles", "target_or_test_system", "value_unit", "meas_value"],
 "data": [
  ["CCOC(=O)N1CCC(N2CCC[C@@H](NC(=O)C3CCCCC3)C2)CC1", "Muscarinic acetylcholine receptor M1 (Rattus norvegicus) (UniProt P08482)", "%", 44],
  ["CCOC(=O)N1CCC(N2CCC[C@@H](NC(=O)c3ccccc3C)C2)CC1", "Muscarinic acetylcholine receptor M1 (Rattus norvegicus) (UniProt P08482)", "%", 96],
  ["CCOC(=O)N1CCC(N2CCC[C@@H](NC(=O)c3ccc(OC)cc3)C2)CC1", "Muscarinic acetylcholine receptor M1 (Rattus norvegicus) (UniProt P08482)", "%", 63]
]}

P: CCOC(=O)N1CCC(N2CCC[C@@H](NC(=O)c3ccccc3)C2)CC1
Q: CCOC(=O)N1CCC(N2CCC[C@@H](NC(=O)c3ccc(C)cc3)C2)CC1
Task: Among P and Q , whose measured Emax is the smaller figure? Output the label that corresponds to your choice.
Result: Q
(Q: 41%, P: 91%)

* * *

Reported EC50 is given for each of the following compounds.
molecular target: Muscarinic acetylcholine receptor M1 (Rattus norvegicus); assay: Agonist activity at rat recombinant muscarinic M1 receptor by HTS cell based assay; assay type: functional
All answers are understood in nM, so give the number only.

{"columns": ["structure_as_smiles", "value_unit", "EC50"],
 "data": [
  ["CCOC(=O)N1CCC(N2CCC[C@@H](NC(=O)c3ccccc3C)C2)CC1", "nM", 1300]
]}

Task: Can you look up the measured EC50 of CCOC(=O)N1CCC(NCCNC(=O)c2ccccc2C)CC1 for me?
Result: 2300

* * *

target: Cytochrome P450 2D6 (Homo sapiens, UniProt P10635)
Sequence (P10635 whole entry): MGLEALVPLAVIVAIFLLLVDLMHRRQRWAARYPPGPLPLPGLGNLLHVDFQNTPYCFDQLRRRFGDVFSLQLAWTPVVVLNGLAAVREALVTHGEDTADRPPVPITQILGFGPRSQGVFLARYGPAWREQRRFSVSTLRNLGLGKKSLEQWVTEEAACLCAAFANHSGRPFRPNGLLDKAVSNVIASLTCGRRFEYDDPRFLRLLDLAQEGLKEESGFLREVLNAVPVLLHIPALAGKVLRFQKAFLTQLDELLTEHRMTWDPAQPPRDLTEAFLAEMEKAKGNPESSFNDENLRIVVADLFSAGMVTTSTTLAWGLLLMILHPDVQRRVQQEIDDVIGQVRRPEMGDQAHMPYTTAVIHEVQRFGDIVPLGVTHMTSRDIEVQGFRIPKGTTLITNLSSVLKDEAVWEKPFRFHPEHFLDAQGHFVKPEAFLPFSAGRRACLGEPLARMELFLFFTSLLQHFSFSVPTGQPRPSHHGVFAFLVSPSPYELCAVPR
pIC50: −log10 of the molar value.
measured_endpoint: pIC50

Task: Report pIC50 for CCOC(=O)N1CCC(N2CCC[C@@H](NC(=O)c3ccccc3C)C2)CC1 tested on Cytochrome P450 2D6 (Homo sapiens, UniProt P10635).
Result: < 4.60

* * *

Reported EC50 values follow for various molecules
biological target: Muscarinic acetylcholine receptor M5 (Rattus norvegicus, UniProt P08911); experiment: Agonist activity at rat muscarinic M5 receptor expressed in CHO cells; format: functional, cell-based
Sequence (P08911 whole entry): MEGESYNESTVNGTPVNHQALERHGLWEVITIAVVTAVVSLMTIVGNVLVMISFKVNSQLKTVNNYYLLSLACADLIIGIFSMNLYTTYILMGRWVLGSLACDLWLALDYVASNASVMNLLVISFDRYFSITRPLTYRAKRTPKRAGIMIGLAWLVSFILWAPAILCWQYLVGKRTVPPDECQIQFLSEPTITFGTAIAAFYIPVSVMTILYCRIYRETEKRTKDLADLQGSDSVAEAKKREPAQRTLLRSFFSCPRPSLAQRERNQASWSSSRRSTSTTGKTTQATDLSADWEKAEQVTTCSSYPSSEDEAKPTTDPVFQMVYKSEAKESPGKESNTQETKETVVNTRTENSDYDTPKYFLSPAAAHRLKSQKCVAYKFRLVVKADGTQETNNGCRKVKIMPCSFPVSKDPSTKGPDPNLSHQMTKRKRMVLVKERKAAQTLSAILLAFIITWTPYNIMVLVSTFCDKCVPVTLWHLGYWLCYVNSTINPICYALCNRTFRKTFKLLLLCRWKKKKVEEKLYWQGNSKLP

{"columns": ["structure_as_smiles", "target_or_test_system", "measured_endpoint", "meas_value"],
 "data": [
  ["CCOC(=O)N1CCC(N2CCC[C@@H](NC(=O)c3cccc(OC)c3)C2)CC1", "Muscarinic acetylcholine receptor M5 (Rattus norvegicus, UniProt P08911)", "EC50", "> 10 µM"]
]}

Task: Any idea what its EC50 is? The molecule is CCOC(=O)N1CCC(N2CCC[C@@H](NC(=O)c3ccc(OC)cc3)C2)CC1
Result: > 10 µM

Task: Fill in: EC50 of CCOC(=O)N1CCC(N2CCC[C@@H](NC(=O)c3ccc(C)cc3)C2)CC1 is ___
Result: > 10 µM

* * *

biological target: D(2) dopamine receptor (Homo sapiens); experiment: Antagonist activity at dopamine D2 receptor
Sequence (P14416 whole entry): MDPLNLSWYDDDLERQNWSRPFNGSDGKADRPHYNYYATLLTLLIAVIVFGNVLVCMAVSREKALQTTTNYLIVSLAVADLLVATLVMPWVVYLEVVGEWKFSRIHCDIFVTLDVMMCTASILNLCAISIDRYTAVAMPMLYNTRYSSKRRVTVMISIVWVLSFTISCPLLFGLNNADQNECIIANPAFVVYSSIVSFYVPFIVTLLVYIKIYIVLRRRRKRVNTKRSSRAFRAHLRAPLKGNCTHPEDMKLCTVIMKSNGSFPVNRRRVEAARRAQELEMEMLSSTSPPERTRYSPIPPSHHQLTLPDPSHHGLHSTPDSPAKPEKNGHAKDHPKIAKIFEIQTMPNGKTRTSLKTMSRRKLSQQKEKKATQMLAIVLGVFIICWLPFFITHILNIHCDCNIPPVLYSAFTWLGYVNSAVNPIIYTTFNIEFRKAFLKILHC
measured_endpoint: pIC50
Value format note: pIC50 is -log10 of concentration (mol/L); just state the number.

Task: Recorded pIC50 for CCOC(=O)N1CCC(NCCNC(=O)c2ccccc2C)CC1 , please?
Result: 5.35

* * *

biological target: Muscarinic acetylcholine receptor M3 (Rattus norvegicus); experiment: Agonist activity at rat muscarinic M3 receptor expressed in CHO cells; type: functional, cell-based
Sequence (P08483 whole entry): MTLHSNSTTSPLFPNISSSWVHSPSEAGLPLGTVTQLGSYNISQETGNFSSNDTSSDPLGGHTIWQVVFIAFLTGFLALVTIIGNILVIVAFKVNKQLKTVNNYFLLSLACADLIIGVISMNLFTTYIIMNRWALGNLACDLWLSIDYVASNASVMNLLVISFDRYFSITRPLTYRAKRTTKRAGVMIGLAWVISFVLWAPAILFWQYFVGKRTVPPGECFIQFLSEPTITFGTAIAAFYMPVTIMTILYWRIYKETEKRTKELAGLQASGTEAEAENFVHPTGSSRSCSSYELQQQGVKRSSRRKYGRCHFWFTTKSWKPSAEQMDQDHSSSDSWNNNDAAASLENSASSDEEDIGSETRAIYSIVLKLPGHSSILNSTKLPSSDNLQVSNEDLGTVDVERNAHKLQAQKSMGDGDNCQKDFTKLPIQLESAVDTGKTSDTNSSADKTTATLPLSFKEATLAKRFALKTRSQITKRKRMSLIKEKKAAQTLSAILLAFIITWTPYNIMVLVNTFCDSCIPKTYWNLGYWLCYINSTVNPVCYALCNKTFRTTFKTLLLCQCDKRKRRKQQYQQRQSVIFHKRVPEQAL
pEC50: −log10 of the molar value.
measured_endpoint: pEC50

{"columns": ["structure_as_smiles", "meas_value"],
 "data": [
  ["CCOC(=O)N1CCC(N2CCC[C@@H](NC(=O)c3cccs3)C2)CC1", "< 5.00"],
  ["CCOC(=O)N1CCC(N2CCC[C@@H](NC(=O)c3ccc(F)c(F)c3)C2)CC1", "< 5.00"],
  ["CCOC(=O)N1CCC(N2CCC[C@@H](NC(=O)c3ccc(OC)cc3)C2)CC1", "< 5.00"],
  ["CCOC(=O)N1CCC(N2CCC[C@@H](NC(=O)c3ccccc3)C2)CC1", "< 5.00"],
  ["CCOC(=O)N1CCC(N2CCC[C@@H](NC(=O)c3ccccc3C)C2)CC1", "< 4.52"],
  ["CCOC(=O)N1CCC(N2CCC[C@@H](NC(=O)c3cccc(F)c3)C2)CC1", "< 5.00"],
  ["CCOC(=O)N1CCC(N2CCC[C@@H](NC(=O)C3CCCCC3)C2)CC1", "< 5.00"],
  ["CCOC(=O)N1CCC(N2CCC[C@@H](NC(=O)C3CCCC3)C2)CC1", "< 5.00"],
  ["CCOC(=O)N1CCC(N2CCC[C@@H](NC(=O)c3cccc(OC)c3)C2)CC1", "< 5.00"],
  ["CCOC(=O)N1CCC(N2CCC[C@@H](NC(=O)c3ccc(C)cc3)C2)CC1", "< 5.00"]
]}

Task: Give its pEC50 value. Item: CCOC(=O)N1CCC(N2CCC[C@@H](NC(=O)c3ccc(F)cc3C)C2)CC1
Result: < 5.00

Task: Reported pEC50, molecule CCOC(=O)N1CCC(N2CCC[C@@H](NC(=O)c3ccccc3Cl)C2)CC1 : ____
Result: < 5.00

Task: Fill blank: measured pEC50 of the molecule CCOC(=O)N1CCC(NCCNC(=O)c2ccccc2C)CC1 is ____.
Result: < 4.52
